Target: UniProtKB Q72547
Assay: In vitro inhibitory activity against HIV-1 reverse transcriptase at 100 uM
# Lookup of reported inhibition keyed by entry
Please respond with the number in % and leave the unit unwritten.

Below: 2 compounds and their reported inhibition.
>>> value_measured("CNc1cccnc1N1CCN(C(=O)c2cc3ccccc3[nH]2)CC1")
85
>>> value_measured("CCC(C)Nc1cccnc1N1CCN(C(=O)c2cc3ccccc3[nH]2)CC1 (stereo not given)")
95

// recorded inhibition for CC(C)Nc1cccnc1N1CCN(C(=O)c2cc3ccccc3[nH]2)CC1 : 96

// recorded inhibition for CC(C)Nc1cccnc1N1CCN(C(=O)c2cc3cc(F)ccc3[nH]2)CC1 : 96

// recorded inhibition for CCNc1cccnc1N1CCN(C(=O)c2ccc3ccccc3c2)CC1 : 74

// recorded inhibition for CCN(C(C)=O)c1cccnc1N1CCN(C(=O)c2cc3ccccc3[nH]2)CC1 : 8

// recorded inhibition for CCC(CC)Nc1cccnc1N1CCN(C(=O)c2cc3ccccc3[nH]2)CC1 : 82

Provenance of the data: ChEMBL document CHEMBL1127691
